Entries annotated with measured protein stability index
B1: EPB41L3 (parent)
chain: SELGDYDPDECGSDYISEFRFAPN

Variants of: B1
Test: protein stability index of a GFP-peptide fusion (GPS, HEK-293T) (PSI 1-6); higher = more stable;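 also: lentivirally expressed fusions sorted by FACS into six bins by GFP to DsRed ratio, PSI derived from sequencing read proportions per bin multiplied by bin number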
Conditions: c terminus: a fixed tail appended
# output: bare number, no unit

Examples with answers:
S13R    1.95
L3G    2.05
S13L    1.97
D14P    1.63
E10C    2.38
Y6V    2.1

Fill blank: measured protein stability index of the variant `S1C` is ____.
1.88

And the next one, `D14Q` ?
1.47

Now consider `G4R` .
2.67

Also check `E18H`
2.37

Repeat with `G12Y`
2.32

Could you do the same for `N24K` , please?
1.69

Thanks! And `C11I` ?
2.2

Another variant to look at: `I16N`
4.52

Can you check `F21V` next?
4.52

// data source = the supplement of paper PMC10567573
